Field: activity at 0.1 µM. Provide a value for each of the compounds that follow.
Target: CDK4 (Homo sapiens, UniProt P11802+Q16531)
Assay: HiBiT detection of HiBiT-tagged CDK4 protein level in MCF7 cells, 16 hours (Table 8)
Format: cell-based
Design: expressed in transfected cells; host or cells: MCF7
Conditions: 100 nM, MCF7 cells stably expressing HiBiT tagged target proteins, read-out: % CDK4 Relative Level (100 nM)
Method: HiBiT detection system quantitatively measures total amounts of HiBiT-tagged proteins using a luminescent based method. MCF7 cells stably expressing HiBiT tagged target proteins were treated with heterobifunctional compounds at indicated concentrations for 16 hours, then lysed with Nano-Glo HiBiT Lytic detection reagents.
Sequence (P11802 whole entry): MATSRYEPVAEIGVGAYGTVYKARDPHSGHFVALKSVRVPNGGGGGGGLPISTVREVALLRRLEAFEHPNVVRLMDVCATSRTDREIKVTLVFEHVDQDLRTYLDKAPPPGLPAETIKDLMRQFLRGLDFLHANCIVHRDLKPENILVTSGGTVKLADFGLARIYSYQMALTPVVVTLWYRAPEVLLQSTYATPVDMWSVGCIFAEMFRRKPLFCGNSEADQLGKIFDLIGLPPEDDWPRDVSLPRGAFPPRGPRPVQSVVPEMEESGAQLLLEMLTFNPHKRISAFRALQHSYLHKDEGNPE
Sequence (P24385 whole entry partner): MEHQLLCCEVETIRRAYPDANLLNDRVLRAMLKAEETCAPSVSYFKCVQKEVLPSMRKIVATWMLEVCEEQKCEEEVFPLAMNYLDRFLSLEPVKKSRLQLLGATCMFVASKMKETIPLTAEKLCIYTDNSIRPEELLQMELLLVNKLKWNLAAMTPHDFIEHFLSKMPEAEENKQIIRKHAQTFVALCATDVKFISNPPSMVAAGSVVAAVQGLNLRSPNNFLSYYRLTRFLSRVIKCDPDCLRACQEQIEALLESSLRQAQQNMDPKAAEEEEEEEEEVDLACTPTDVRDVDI
Sequence (Q16531 2-1140 limits assumed): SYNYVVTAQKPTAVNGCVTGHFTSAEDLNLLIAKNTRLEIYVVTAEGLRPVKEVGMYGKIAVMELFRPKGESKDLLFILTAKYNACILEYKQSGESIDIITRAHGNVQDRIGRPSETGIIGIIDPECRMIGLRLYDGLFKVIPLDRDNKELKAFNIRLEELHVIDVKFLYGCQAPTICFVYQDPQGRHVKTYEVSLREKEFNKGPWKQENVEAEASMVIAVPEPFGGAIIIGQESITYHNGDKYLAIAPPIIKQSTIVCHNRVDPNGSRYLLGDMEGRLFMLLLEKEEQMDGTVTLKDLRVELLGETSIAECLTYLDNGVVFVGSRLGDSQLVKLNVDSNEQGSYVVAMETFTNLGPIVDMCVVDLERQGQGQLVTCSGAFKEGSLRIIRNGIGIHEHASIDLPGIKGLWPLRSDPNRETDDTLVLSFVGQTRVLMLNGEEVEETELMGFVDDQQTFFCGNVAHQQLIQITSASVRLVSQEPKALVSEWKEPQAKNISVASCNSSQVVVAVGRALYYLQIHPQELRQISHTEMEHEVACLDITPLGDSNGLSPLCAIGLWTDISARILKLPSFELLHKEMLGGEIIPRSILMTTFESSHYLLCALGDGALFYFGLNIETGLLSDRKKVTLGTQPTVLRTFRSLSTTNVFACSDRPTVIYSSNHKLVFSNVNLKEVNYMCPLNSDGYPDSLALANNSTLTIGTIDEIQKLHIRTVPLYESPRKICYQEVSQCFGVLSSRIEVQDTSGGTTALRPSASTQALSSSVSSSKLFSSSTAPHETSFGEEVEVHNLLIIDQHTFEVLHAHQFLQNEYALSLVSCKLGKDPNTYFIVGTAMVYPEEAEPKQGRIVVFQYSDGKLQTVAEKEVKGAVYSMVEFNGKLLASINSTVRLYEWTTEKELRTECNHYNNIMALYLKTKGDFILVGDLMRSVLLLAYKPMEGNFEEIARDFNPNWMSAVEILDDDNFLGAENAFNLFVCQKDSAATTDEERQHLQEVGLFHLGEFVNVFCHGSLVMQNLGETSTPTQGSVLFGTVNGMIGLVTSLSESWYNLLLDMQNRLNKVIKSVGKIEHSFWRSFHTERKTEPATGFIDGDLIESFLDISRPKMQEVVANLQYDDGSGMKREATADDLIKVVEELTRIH

Returns the measured activity at 0.1 µM for the input compound. Input: CNc1ccc(C(=O)Nc2ccc(N(C)C)nn2)c(NCCNC(=O)CN2CCN(c3ccc(Nc4ncc(F)c(-c5cc(F)c6nc(C)n(C(C)C)c6c5)n4)nc3)CC2)n1 [CPD-658] > 85%

# iterate: CC(=O)c1c(C)c2cnc(Nc3ccc(N4CCN(CCC(=O)N5CCC(Nc6nc(NC(C)C)ccc6C(=O)Nc6ccc(N(C)C)nn6)CC5)CC4)cn3)nc2n(C2CCCC2)c1=O [CPD-301] 55 to 85%

# iterate: CNc1ccc(C(=O)Nc2ccc(N(C)C)nn2)c(NCCNC(=O)CN2CCN(c3ccc(Nc4ncc5cc(C(=O)N(C)C)n(C6CCCC6)c5n4)nc3)CC2)n1 [CPD-624] 55 to 85%

# iterate: CNc1ccc(C(=O)Nc2ccc(N(C)C)nn2)c(NCCOCCNC(=O)CN2CCN(c3ccc(Nc4ncc(F)c(-c5cc(F)c6nc(C)n(C(C)C)c6c5)n4)nc3)CC2)n1 [CPD-665] > 85%

# iterate: CC(=O)c1c(C)c2cnc(Nc3ccc(N4CCN(C5CCN(C(=O)C6(O)CCC(Nc7nc(NC(C)C)ccc7C(=O)Nc7ccc(N(C)C)nn7)CC6)C5)CC4)cn3)nc2n(C2CCCC2)c1=O (centres unmarked) [CPD-574] 55 to 85%

# iterate: CC(=O)c1c(C)c2cnc(Nc3ccc(N4CCC5(CCN(CC(=O)N6CC7(CC(Nc8nc(NC(C)C)ccc8C(=O)Nc8cn9c(n8)CCC9)C7)C6)C5)C4)cn3)nc2n(C2CCCC2)c1=O (centres unmarked) [CPD-565] 55 to 85%

# iterate: CC(=O)c1c(C)c2cnc(Nc3ccc(N4CCN(CC(=O)NC5CC6(C5)CC(Nc5nc(NC(C)C)ccc5C(=O)Nc5cc(C)n(C)n5)C6)CC4)cn3)nc2n(C2CCCC2)c1=O (centres unmarked) [CPD-253] 55 to 85%

# iterate: CC(=O)c1c(C)c2cnc(Nc3ccc(N4CCC5(CCN(CC(=O)N6CC7(CC(Nc8nc(NC(C)C)ccc8C(=O)Nc8cc9n(n8)CCC9)C7)C6)C5)C4)cn3)nc2n(C2CCCC2)c1=O (centres unmarked) [CPD-529] > 85%

# iterate: CC(C)Nc1ccc(C(=O)Nc2ccc(N(C)C)nn2)c(NC2CC3(CC(NC(=O)CN4CCN(Cc5ccc(Nc6ncc7cc(C(=O)N(C)C)n(C8CCCC8)c7n6)nc5)CC4)C3)C2)n1 (centres unmarked) [CPD-562] > 85%

# iterate: CNc1ccc(C(=O)Nc2ccc(N(C)C)nn2)c(NCCCCCNC(=O)CN2CCN(c3ccc(Nc4ncc5cc(C(=O)N(C)C)n(C6CCCC6)c5n4)nc3)CC2)n1 [CPD-627] 55 to 85%

# iterate: CNc1ccc(C(=O)Nc2ccc(N(C)C)nn2)c(NCCCCCCCC(=O)NC2CCC3(CC2)CC(Nc2ncc4ccc(=O)n(C5CCCC5)c4n2)C3)n1 (centres unmarked) [CPD-678] > 85%

* * *

Field: activity at 0.01 µM. Provide a value for each of the compounds that follow.
target: CDK4 (Homo sapiens, UniProt P11802+Q16531); experiment: HiBiT detection of HiBiT-tagged CDK4 protein level in MCF7 cells, 16 hours (Table 8); format: cell-based; design: expressed in transfected cells; host or cells: MCF7; details: 10 nM, MCF7 cells stably expressing HiBiT tagged target proteins, read-out: % CDK4 Relative Level (10 nM)

Returns the measured activity at 0.01 µM for the input compound. Input: CC(=O)c1c(C)c2cnc(Nc3ccc(CC4CCN(CC(=O)NC5CC6(C5)CC(Nc5nc(NC(C)C)ccc5C(=O)Nc5ccc(N(C)C)nn5)C6)CC4)cn3)nc2n(C2CCCC2)c1=O (centres unmarked) 55 to 85%

# iterate: CNc1ccc(C(=O)Nc2ccc(N(C)C)nn2)c(NCCC(=O)N2CCN(c3ccc(Nc4ncc5cc(C(=O)N(C)C)n(C6CCCC6)c5n4)nc3)CC2)n1 > 85%

# iterate: CC(C)Nc1ccc(C(=O)Nc2ccc(N(C)C)nn2)c(NC2CC3(CC(NC(=O)CN4CCN(Cc5ccc(Nc6ncc7cc8n(c7n6)C6(CCCCC6)CNC8=O)nc5)CC4)C3)C2)n1 (centres unmarked) > 85%

# iterate: CNc1ccc(C(=O)Nc2ccc(N(C)C)nn2)c(NCCCCCC(=O)N2CCN(c3ccc(Nc4ncc(F)c(-c5cc(F)c6nc(C)n(C(C)C)c6c5)n4)nc3)CC2)n1 > 85%

# iterate: CNc1ccc(C(=O)Nc2ccc(N(C)C)nn2)c(NCCC(=O)N2CCN(c3ccc(Nc4ncc5cc6n(c5n4)C4(CCCCC4)CNC6=O)nc3)CC2)n1 > 85%

# iterate: CNc1ccc(C(=O)Nc2ccc(N(C)C)nn2)c(NCCC(=O)N2CCN(Cc3ccc(Nc4ncc(F)c(-c5cc(F)c6nc(C)n(C(C)C)c6c5)n4)nc3)CC2)n1 55 to 85%

# iterate: CNc1ccc(C(=O)Nc2ccc(N(C)C)nn2)c(NCC(=O)N2CCN(Cc3ccc(Nc4ncc(F)c(-c5cc(F)c6nc(C)n(C(C)C)c6c5)n4)nc3)CC2)n1 > 85%

# iterate: CNc1ccc(C(=O)Nc2ccc(N(C)C)nn2)c(NCCCCCCCNC(=O)CN2CCN(Cc3ccc(Nc4ncc(F)c(-c5cc(F)c6nc(C)n(C(C)C)c6c5)n4)nc3)CC2)n1 > 85%

# iterate: CC(=O)c1c(C)c2cnc(Nc3ccc(N4CCC5(CC4)CC5C(=O)N4CCC(Nc5nc(NC(C)C)ccc5C(=O)Nc5ccc(N(C)C)nn5)CC4)cn3)nc2n(C2CCCC2)c1=O (centres unmarked) 55 to 85%

# iterate: CNc1ccc(C(=O)Nc2ccc(N(C)C)nn2)c(NCCCCNC(=O)CN2CCN(c3ccc(Nc4ncc(F)c(-c5cc(F)c6nc(C)n(C(C)C)c6c5)n4)nc3)CC2)n1 > 85%

# iterate: CNc1ccc(C(=O)Nc2ccc(N(C)C)nn2)c(NCCCCCCCC(=O)NC2CCC3(CC2)CC(Nc2ncc4ccc(=O)n(C5CCCC5)c4n2)C3)n1 (centres unmarked) > 85%

* * *

target: CDK4 (Homo sapiens, UniProt P11802+Q16531); test: HiBiT detection of HiBiT-tagged CDK4 protein level in MCF7 cells, 16 hours (Table 8); type: cell-based; design: expressed in transfected cells; host or cells: MCF7; conditions: 10 nM, MCF7 cells stably expressing HiBiT tagged target proteins, read-out: % CDK4 Relative Level (10 nM)
Field: activity at 0.01 µM. Provide a value for each of the compounds that follow.

Returns the measured activity at 0.01 µM for the input compound. Input: CC(=O)c1c(C)c2cnc(Nc3ccc(N4CCC(N(C)CC(=O)NC56CC(Nc7nc(NC(C)C)ccc7C(=O)Nc7ccc(N(C)C)nn7)(C5)C6)CC4)cn3)nc2n(C2CCCC2)c1=O > 85%

# iterate: CC(=O)c1c(C)c2cnc(Nc3ccc(N4CCN(C5CCN(C(=O)C6(O)CCC(Nc7nc(NC(C)C)ccc7C(=O)Nc7ccc(N(C)C)nn7)CC6)C5)CC4)cn3)nc2n(C2CCCC2)c1=O (stereo not drawn) > 85%

# iterate: CNc1ccc(C(=O)Nc2ccc(N(C)C)nn2)c(NCCCCCCCCNC(=O)CN2CCN(c3ccc(Nc4ncc5cc(C(=O)N(C)C)n(C6CCCC6)c5n4)nc3)CC2)n1 55 to 85%

* * *

Field: inhibition at 0.2 µM. Provide a value for each of the compounds that follow.
target: CDK4 (Homo sapiens, UniProt P11802+Q16531); assay: CDK4 percentage degradation in Calu-1 cells (Table 6); assay type: cell-based; set-up: Cells that express cyclin D1-3 and CDK4/6 proteins were treated with heterobifunctional compounds; endogenous in cells; host or cells: Calu-1; details: 200 nM, 16 hours
Sequence (P11802 2-303 limits assumed): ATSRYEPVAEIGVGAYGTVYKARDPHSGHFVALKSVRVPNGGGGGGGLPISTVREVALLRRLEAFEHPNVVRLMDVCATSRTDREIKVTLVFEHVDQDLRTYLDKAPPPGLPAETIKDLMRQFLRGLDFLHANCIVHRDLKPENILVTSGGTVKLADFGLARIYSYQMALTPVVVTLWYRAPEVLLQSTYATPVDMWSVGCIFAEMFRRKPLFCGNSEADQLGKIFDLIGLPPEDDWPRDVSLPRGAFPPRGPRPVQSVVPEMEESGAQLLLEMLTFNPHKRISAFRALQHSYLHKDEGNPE
Sequence (P24385 whole entry partner): as the sequence (P24385 whole entry partner) above
Sequence (Q16531 2-1140 limits assumed): as the sequence (Q16531 2-1140 limits assumed) above

Returns the measured inhibition at 0.2 µM for the input compound. Input: CC(=O)c1c(C)c2cnc(Nc3ccc(N4CCN(CC(=O)NC5CC6(C5)CC(Nc5nc(C)ccc5C(=O)Nc5cccc(C7CC7)n5)C6)CC4)cn3)nc2n(C2CCCC2)c1=O (stereo not shown) [CPD-120] 30 to 50%

# iterate: CNc1ccc(C(=O)Nc2cccc(C3CC3)n2)c(NC[C@H]2CC[C@H](NC(=O)CN3CCN(c4ccc(Nc5ncc6c(C)c(C(C)=O)c(=O)n(C7CCCC7)c6n5)nc4)CC3)CC2)n1 [CPD-154] < 30%

# iterate: [2H]C([2H])([2H])Nc1ccc(C(=O)Nc2ccc(N(C)C)nn2)c(NC2CC3(CC(NC(=O)CN4CCN(c5ccc(Nc6ncc7c(C)c(C(C)=O)c(=O)n(C8CCCC8)c7n6)nc5)CC4)C3)C2)n1 (stereo not shown) [CPD-241] 50 to 80%

# iterate: CNc1ccc(C(=O)Nc2ccc(C)c(C)n2)c(NC2CC3(CC(NC(=O)CN4CCN(c5ccc(Nc6ncc7c(C)c(C(C)=O)c(=O)n(C8CCCC8)c7n6)nc5)CC4)C3)C2)n1 (stereo not shown) [CPD-182] 30 to 50%

# iterate: CNc1ccc(C(=O)Nc2cn(C)c(C)n2)c(NC2CC3(CC(NC(=O)CN4CCN(c5ccc(Nc6ncc7c(C)c(C(C)=O)c(=O)n(C8CCCC8)c7n6)nc5)CC4)C3)C2)n1 (stereo not shown) [CPD-179] 50 to 80%

# iterate: CNc1ccc(C(=O)Nc2ccc(N(C)C)nn2)c(NC2CC(CC(=O)N3CCN(c4ccc(Nc5ncc6c(C)c(C(C)=O)c(=O)n(C7CCCC7)c6n5)nc4)CC3)C2)n1 (stereo not shown) [CPD-148] > 80%

# iterate: CNc1ccc(C(=O)Nc2ccc3c(n2)CCC3)c(NCCCCCNC(=O)CN2CCN(c3ccc(Nc4ncc5c(C)c(C(C)=O)c(=O)n(C6CCCC6)c5n4)nc3)CC2)n1 [CPD-40] 50 to 80%

# iterate: [2H]C([2H])([2H])Nc1ccc(C(=O)Nc2ccc(N(C)C)nn2)c(NC2CCN(C(=O)CN3CCN(c4ccc(Nc5ncc6c(C)c(C(C)=O)c(=O)n(C7CCCC7)c6n5)nc4)CC3)CC2)n1 [CPD-250] 50 to 80%

# iterate: CNc1ccc(C(=O)Nc2cc(C)cc(C3CC3)n2)c(NCCCCCNC(=O)CN2CCN(c3ccc(Nc4ncc5c(C)c(C(C)=O)c(=O)n(C6CCCC6)c5n4)nc3)CC2)n1 [CPD-53] 50 to 80%

# iterate: CNc1ccc(C(=O)Nc2ccc(N(C)C)nn2)c(NC2CCN(C(=O)CCN3CCN(c4ccc(Nc5ncc6c(C)c(C(C)=O)c(=O)n(C7CCCC7)c6n5)nc4)CC3)C2)n1 (stereo not shown) [CPD-218] 50 to 80%

Reference for the values: patent US20260297081A1
